I'd appreciate it if you could supply IC50 values for the items below.
- experimental-system: PD-1/PD-L1 protein/protein interaction (Homo sapiens, UniProt Q9NZQ7)
- Construct: Recombinant human PD-L1 protein (19-238) with a His-tag at the C-terminus; purchased AcroBiosystems PD1-H5229 (PD-L1); PD1-H5257 (PD-1)
- Sequence (Q9NZQ7 19-238): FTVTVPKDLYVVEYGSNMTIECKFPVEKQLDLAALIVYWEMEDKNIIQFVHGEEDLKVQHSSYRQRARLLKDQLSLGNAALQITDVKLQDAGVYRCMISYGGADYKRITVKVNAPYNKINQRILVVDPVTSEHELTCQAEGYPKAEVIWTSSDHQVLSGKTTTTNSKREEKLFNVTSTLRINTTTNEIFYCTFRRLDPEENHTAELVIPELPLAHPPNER
- assay-overview: PD-1/PD-L1 homogenous time-resolved fluorescence (HTRF) binding assay

Solved entries (count: 6):
Cc1c(Nc2nccc3cc(CN4CCCCC4C(=O)O)cnc23)cccc1-c1cccc(OCCCN2CCOCC2)c1F (stereo not drawn)
0.002 to 0.01 µM
CCNCCCOc1cccc(-c2cccc(Nc3nccc4cc(CN5CCCCC5C(=O)O)cnc34)c2C)c1C (stereo not drawn)
< 0.002 µM
Cc1c(Nc2nccc3cc(CNCC(=O)O)cnc23)cccc1-c1cncc(OCCCN2CCOCC2)c1C
0.01 to 0.15 µM
Cc1c(NC(=O)NCCN2CCOCC2)cccc1-c1cccc(Nc2nccc3cc(CN4CCCCC4C(=O)O)cnc23)c1C (stereo not drawn)
> 0.15 µM
CCN(CC)CCCOc1cccc(-c2cccc(Nc3nccc4cc(CN5CCCCC5C(=O)O)cnc34)c2C)c1C (stereo not drawn)
< 0.002 µM
Cc1c(Nc2nccc3cc(CN4CCCCC4C(=O)O)cnc23)cccc1-c1cccc(OCC2(CN3CCOCC3)CC2)c1C (stereo not drawn)
0.002 to 0.01 µM

Required: IC50, one value per molecule below.
1. Cc1c(Nc2nccc3cc(CN4CCCCC4C(=O)O)cnc23)cccc1-c1cccc(OCCN2CCOCC2)c1C (stereo not drawn)
2. Cc1c(Nc2nccc3cc(CN4CCCCC4C(=O)O)cnc23)cccc1-c1ccc(C(F)(F)F)c(OCCCN2CCOCC2)c1 (stereo not drawn)
3. Cc1c(Nc2nccc3cc(CN4CCCCC4C(=O)O)cnc23)cccc1-c1cccc2c1CCC2OCCN1CCOCC1 (stereo not drawn)
4. Cc1c(COCCN2CCOCC2)cccc1-c1cccc(Nc2nccc3cc(CN4CCCCC4C(=O)O)cnc23)c1C (stereo not drawn)
5. Cc1ccc(-c2cccc(Nc3nccc4cc(CN5CCCCC5C(=O)O)cnc34)c2C)cc1OCCCN1CCOCC1 (stereo not drawn)
6. Cc1c(Nc2nccc3cc(CN4CCCCC4C(=O)O)cnc23)cccc1-c1cccc(OCCCNS(C)(=O)=O)c1C (stereo not drawn)
7. Cc1c(Nc2nccc3cc(CN4CCCCC4C(=O)O)cnc23)cccc1-c1cccc(N(C)CCCN2CCOCC2)c1C (stereo not drawn)

Reply:
0.01 to 0.15 µM
> 0.15 µM
> 0.15 µM
< 0.002 µM
0.002 to 0.01 µM
> 0.15 µM
> 0.15 µM

Required: IC50, one value per molecule below.
1. CC(=O)NCCCOc1cccc(-c2cccc(Nc3nccc4cc(CN5CCCCC5C(=O)O)cnc34)c2C)c1C (stereo not drawn)
2. Cc1c(Nc2nccc3cc(CN4CCCCC4C(=O)O)cnc23)cccc1-c1cccc(OCCCNC(N)=O)c1C (stereo not drawn)

Reply:
["> 0.15 µM", "> 0.15 µM"]
